Would you kindly list protein stability index for each of these variants?
B1: DYRK1B (parent)
chain: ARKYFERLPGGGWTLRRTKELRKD

Variants of: B1
TEST SUMMARY: protein stability index of a GFP-peptide fusion (GPS, HEK-293T) (PSI 1-6); higher = more stable;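 note: lentivirally expressed fusions sorted by FACS into six bins by GFP to DsRed ratio, PSI derived from sequencing read proportions per bin multiplied by bin number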
ASSAY CONDITIONS: c terminus: a fixed tail appended
One number for each entry.

Examples with answers:
| MUTATION | protein stability index |
| --- | --- |
| W13I | 3.31 |
| T14F | 2.36 |
| G12P | 2.96 |
| R7M | 3.67 |
| R2Y | 3.85 |
| E20N | 3.14 |

Go through the list and state protein stability index for each entry.
1. D24T
2. K19S

3.36
3.82

Go through the list and state protein stability index for each entry.
1. R17F
2. Y4R
3. G11D
4. E20R

2.58
4.29
2.93
3.3

Go through the list and state protein stability index for each entry.
1. D24F
2. R16F
3. K19H
4. K3L
5. L15M
6. R7K
7. E6C
8. A1L

2.3
1.69
3.08
2.48
3.25
3.52
3.85
2.36

Go through the list and state protein stability index for each entry.
1. L8F
2. F5A
3. W13K
4. E20Q
5. P9N
6. L8Q
7. L15T
8. K3F

1: 2.57; 2: 3.86; 3: 3.77; 4: 3.26; 5: 1.97; 6: 3.38; 7: 3.35; 8: 1.98

Go through the list and state protein stability index for each entry.
1. G11V
2. A1E

[2.48, 3.96]

Go through the list and state protein stability index for each entry.
1. Y4L
2. R2F
3. P9R
4. K19F

3.14
3.89
3.22
3.01

Go through the list and state protein stability index for each entry.
1. L15I
2. R7L
3. R16L

1. 3.22
2. 2.77
3. 2.79

Go through the list and state protein stability index for each entry.
1. L15A
2. Y4E
3. T14W
4. A1T
5. L8V

1. 3.78
2. 3.76
3. 2.72
4. 3.31
5. 3.84
